- target of assay: human properdin (human, UniProt P27918 28-469)
- Sequence (P27918 28-469 limits assumed): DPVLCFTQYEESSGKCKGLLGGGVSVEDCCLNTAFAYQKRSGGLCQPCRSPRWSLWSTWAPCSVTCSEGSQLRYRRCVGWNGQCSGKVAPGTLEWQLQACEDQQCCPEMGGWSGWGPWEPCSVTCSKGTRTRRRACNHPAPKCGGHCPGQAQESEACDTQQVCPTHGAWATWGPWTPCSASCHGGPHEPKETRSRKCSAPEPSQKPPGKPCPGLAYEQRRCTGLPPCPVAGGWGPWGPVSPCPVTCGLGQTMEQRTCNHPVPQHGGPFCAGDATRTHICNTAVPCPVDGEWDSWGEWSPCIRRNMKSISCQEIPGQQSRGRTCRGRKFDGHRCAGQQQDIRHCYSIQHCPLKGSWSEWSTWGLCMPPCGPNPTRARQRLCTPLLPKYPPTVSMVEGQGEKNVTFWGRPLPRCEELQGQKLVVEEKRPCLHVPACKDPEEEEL
- assay: cell-based or functional assay
# IC50 (read off the curve): C3b deposition (sheet title: LPS C3b 10% NHS) annotations

Before answering, review these 3 worked examples.
NMT31-100 (antibody, V domains shown) VH: EVTLKESGPTLVKPTQTLTLTCTFSGFSLSTSGMGVGWIRQPPGKALEWLAHIWWDDVKSYNPALKSRLTITKDTSKNQVVLTMTNMDPVDTATYYCARIGDGYYSFDYWGQGTTVTVSS VL: DIQMTQSPSSLSASVGDRVTITCRASQDVSDAVAWFQQKPGKAPKLLIYSPSYRYTGVPSRFSGSGSGTDFTFTISSLQPEDLATYYCQQHYSTPWTFGQGTKLEIK    ~0.5 µg/mL
NMT30-100 (antibody, V domains shown) VH: EVTLKESGPTLVKPTQTLTLTCTFSGFSLSTSGMGVGWIRQPPGKALEWLAHIWWDDVKSYNPALKSRLTITKDTSKNQVVLTITNVDPVDTATYYCARIGDGYYSFDYWGQGTTLTVSS VL: DIQMTQSPSSLSASVGDRVTITCRASQDVSDAVAWFQQKPGKAPKLLIYSPSYRYTGVPSRFSGSGSGTDFTFTISSLQPEDFATYYCQQHYSTPWTFGQGTKLEIK    ~0.6 µg/mL
NMT31-101 (antibody, V domains shown) VH: EVTLKESGPTLVKPTQTLTLTCTFSGFSLSTSGMGVGWIRQPPGKALEWLAHIWWDDVKSYNPALKSRLTITKDTSKNQVVLTMTNMDPVDTATYYCARIGDGYYSFDYWGQGTTVTVSS VL: DIQMTQSPSSLSASVGDRVTITCRASQDVSDAVAWFQQKPGKAPKLLIYSPSYRYTGVPSRFSGSGSGTDFTFTISSLQPEDLATYYCQQHYSTPWTFGQGTKLEIK    ~0.5 µg/mL

Moving on to the next binder.
Quick one: IC50 (read off the curve): C3b deposition (sheet title: LPS C3b 10% NHS) of NMT30-101 (antibody, V domains shown) VH: EVTLKESGPTLVKPTQTLTLTCTFSGFSLSTSGMGVGWIRQPPGKALEWLAHIWWDDVKSYNPALKSRLTITKDTSKNQVVLTITNVDPVDTATYYCARIGDGYYSFDYWGQGTTLTVSS VL: DIQMTQSPSSLSASVGDRVTITCRASQDVSDAVAWFQQKPGKAPKLLIYSPSYRYTGVPSRFSGSGSGTDFTFTISSLQPEDFATYYCQQHYSTPWTFGQGTKLEIK ?
~0.6 µg/mL
